tested on: NCI-H460 lung; assay: NCI tumour cell line growth inhibition, 48 h
attribute-measured: TGI

Below, each entry is followed by its recorded TGI result.
CSCCCNC(=O)c1ccc2c(c1)/C(=C/c1[nH]c(C)cc1C)C(=O)N2	> 100 µM
CCOC(=O)CCn1ncc(Cl)c(Cl)c1=O	30.3 µM
COc1ccc(C(O)c2cc3c(N)c(C(=O)Nc4cccc(Cl)c4)sc3nc2C)cc1 (stereo unspecified)	5.53 µM
CCCCCCCCNCCC[C@@H](C)[C@H]1CC[C@H]2[C@@H]3[C@H](OCCCN)C[C@H]4C[C@H](OCCCN)CC[C@]4(C)[C@H]3C[C@H](OCCCN)[C@]12C	> 19.8 µM

compound CCOC(=O)c1cc2c([N+](=O)[O-])c(N)ccc2s1 , TGI observed: > 100 µM

compound Cc1ccc(S(=O)CC(CF)OCn2cc(C)c(=O)[nH]c2=O)cc1 (stereo unspecified) , TGI observed: > 100 µM
